pKi values for Plasminogen (Homo sapiens, UniProt P00747) compiled from several publications are listed below.
pKi: −log10 of the molar value.

[ask] # lookup: pKi of N=C(N)Nc1ccc(NC(=O)c2cc3ccccc3c(Br)c2O)cc1
[reply] < 4.12

[ask] Then what about the molecule NC(N)=Nc1ncc(Cl)c2ccc(S(=O)(=O)N3CCCC3)cc12 ?
[reply] < 4.52

[ask] What do we get for N=C(N)c1cccc(C[C@H](NS(=O)(=O)c2cccc(NC(=O)CCN)c2)C(=O)N2CCC(CCCN)CC2)c1 ?
[reply] 5.57

[ask] Then what about the molecule N=C(N)Nc1ccc(CNC(=O)N2CCN(C(=O)O[C@H]3CCC[C@@H](OC(=O)N4CCN(C(=O)NCCC5CCNCC5)CC4)CCC3)CC2)cc1 ?
[reply] < 3.00

[ask] Let us now turn to N=C(N)c1ccc(CNC(=O)CNC(=O)[C@@H](N)CCC(=O)O)cc1
[reply] < 3.00

[ask] Param item: N=C(N)c1ccc(CNC(=O)CNC(=O)[C@H](N)CO)cc1
[reply] < 3.00

[ask] Follow-up item: Cc1cc(N2CCC(N(C)C(=O)CCS(=O)(=O)c3ccc4cc(Cl)ccc4c3)CC2)ccn1
[reply] < 3.70

[ask] And the next one, CC(C)c1cc(C(C)C)c(S(=O)(=O)N[C@@H](Cc2cccc(C(=N)N)c2)C(=O)N2CCC(C(=O)NCCN)CC2)c(C(C)C)c1 ?
[reply] 6.03

[ask] Another molecule: COC(=O)OC[C@@H](NS(=O)(=O)Cc1ccccc1)C(=O)NCC(=O)NCc1ccc(C(=N)N)cc1
[reply] 4.96
